targetSystem: Phospholipid hydroperoxide glutathione peroxidase GPX4 (Homo sapiens)
testMethodNotes: Primary qHTS Assay for Inhibitors of Recombinant Selenoprotein Glutathione Peroxidase 4 (GPX4) (AID 1845192); also: nearly all actives have a fitted effect of over 65% in size
experimentalConditions: recombinant GPX4, GR-coupled NADPH fluorescence, 15 min; series mostly up to 50 µM
Results filed as inconclusive are left out. Activity calls are given as the source filed them. Calls follow the shape of the dose curve; as a rule, active = well fitted inhibition curve with a large enough effect; inconclusive = small, poorly fitted or top-dose-only effect; inactive = flat fitted curve, though single readings scatter.
Classes to choose from: active, inactive

compound	classification
CC(Cc1ccccc1)NCCCCl (stereo not given)	inactive

So what was the verdict on `C=CCN1CC[C@]23CCCC[C@H]2[C@H]1Cc1ccc(O)cc13` in this test? inactive

So what was the verdict on COP(=O)(OC)C(O)C(Cl)(Cl)Cl (stereo not given) in this test? inactive

So what was the verdict on CCC1(c2cccc(O)c2)CCCCN(C)C1 (stereo not given) in this test? inactive

So what was the verdict on `NC(=O)OCCCc1ccccc1` in this test? inactive

So what was the verdict on `C[C@@H]1CC[C@H]2[C@@H](C)C(=O)O[C@@H]3O[C@@]4(C)CC[C@@H]1[C@]32OO4` in this test? inactive

So what was the verdict on `COP(=O)(OC)OC=C(Cl)Cl` in this test? inactive

So what was the verdict on `O=C(O)Cc1ccccc1` in this test? inactive

So what was the verdict on `O=c1n(Cl)c(=O)n(Cl)c(=O)n1Cl` in this test? inactive

So what was the verdict on `CNC(=O)Oc1cccc2ccccc12` in this test? inactive

So what was the verdict on C[N+]1(C)[C@@H]2CC[C@H]1CC(OC(=O)C(CO)c1ccccc1)C2 (stereo not given in full) in this test? inactive

So what was the verdict on CC(C)C(Br)C(=O)NC(N)=O (stereo not given) in this test? inactive

So what was the verdict on CN(C)C(=O)Oc1cc(OC(=O)N(C)C)cc(C(O)CNC(C)(C)C)c1 (stereo not given) in this test? inactive

So what was the verdict on `C[C@@H]1C[C@@H]([C@H](O)CC2CC(=O)NC(=O)C2)C(=O)[C@@H](C)C1` in this test? inactive

So what was the verdict on C=CCOC(Cn1ccnc1)c1ccc(Cl)cc1Cl (stereo not given) in this test? inactive

So what was the verdict on `CC1=C2[C@H]3OC(=O)[C@@H](C)[C@@H]3CC[C@@]2(C)C=CC1=O` in this test? inactive

So what was the verdict on `CC[C@H]1C[C@H]2[C@@H]3CCC4=CC(=O)CC[C@@H]4[C@H]3CC[C@]2(C)[C@H]1O` in this test? inactive

So what was the verdict on `CCCOC(=O)Cc1ccc(OCC(=O)N(CC)CC)c(OC)c1` in this test? inactive

###

experimentalConditions: Ebola virus entry assay, ratio channel
Activity calls are given as the source filed them. No rule for the calls is given here.
Classes to choose from: TRUE for active, FALSE for inactive

Solved cases below.
molecule	classification
Clc1ccc(C(Cn2ccnc2)OCc2c(Cl)cccc2Cl)c(Cl)c1 (stereo unspecified)	TRUE
CN(C)CC/C=C1\c2ccccc2Sc2ccc(Cl)cc21	TRUE
NS(=O)(=O)c1cc2c(cc1Cl)NC(CSCc1ccccc1)=NS2(=O)=O	FALSE
C1CCN2C[C@@H]3C[C@@H](CN4CCCC[C@@H]34)[C@H]2C1	FALSE
CC(=O)[C@@]1(O)CC[C@H]2[C@@H]3C[C@H](C)C4=CC(=O)CC[C@]4(C)[C@H]3CC[C@@]21C	FALSE
C#C[C@]1(O)CC[C@H]2[C@@H]3CCc4cc(O)ccc4[C@H]3CC[C@@]21C	TRUE
O=C1NCN(c2ccccc2)C12CCN(CCCC(c1ccc(F)cc1)c1ccc(F)cc1)CC2	TRUE
c1ccc(CC2=NCCN2)cc1	FALSE
O=C(NOCC1CC1)c1ccc(F)c(F)c1Nc1ccc(I)cc1Cl	TRUE
CCN1C(=O)c2ccccc2C1Nc1ccc(OCCN2CCCCC2)cc1 (stereo unspecified)	TRUE

Query molecule follows.
So what was the verdict on `CC(=O)[C@H]1CC[C@H]2[C@@H]3CC=C4C[C@@H](O)CC[C@]4(C)[C@H]3CC[C@]12C` in this test? FALSE
